Target: T1, human HER2 antigen protein (human, UniProt P04626 23-652)
T1 construct: Antigen coated in the ELISA of Embodiment 5 and immobilised on the CM-5 chip in Embodiment 7; Embodiment 7 says only 'antigen protein Her2' without species or construct; also called antigen protein Her2
Experiment: Biacore, Her2 immobilised on CM-5 chip
assayEndpoint: kon (M⁻¹ s⁻¹)
The response must be a number in M⁻¹ s⁻¹ with no trailing unit.

Summary for this binder, Nanobody No. 10 (VHH, camel VHH from pMECs phage display vector; also called Antibody no; 10; not shown: tags (HA, His) implied by anti-HA detection and nickel column) VHH: QVQLQESGGGSVQAGETLKLSCTASGFTFDDSTMAWYRQAPGNECKLVSTISSDGSTYYADSVKGRFTISQDNAKNTVYLQMNSLKPEDTAVYYCAADDQNYELGTCEALDYWGRGTQVTVSS : kon is 706000

Summary for this binder, Nanobody No. 23 (VHH, camel VHH from pMECs phage display vector; also called Antibody no; 23; not shown: tags (HA, His) implied by anti-HA detection and nickel column) VHH: QVQLQESGGGSVQAGGSLKLSCSASGFTFDDTDMGWYRQAPGNECELVSTISSDGTTYYTDSVKGRFTISQDNAKNTVYLQMNSLKPEDTAVYYCAAINSGYELGTCESLDYWGRGTQVTVSS : kon is 682000

Summary for this binder, Nanobody No. 9 (VHH, camel VHH from pMECs phage display vector; also called Antibody no; not shown: tags (HA, His) implied by anti-HA detection and nickel column) VHH: QVQLQESGGGSVQAGETLRLSCTASGFTFDDSDMGWYRQAPGSECELVSTISSDGNTYYSNSVKGRFTISQDNAKNTVYLQMNSLKPEDTAVYYCAADDQHYELGTCEALDYWGRGTQVTVSS : kon is 1.11e+06

Summary for this binder, Nanobody No. 17 (VHH, camel VHH from pMECs phage display vector; also called Antibody no; 17; not shown: tags (HA, His) implied by anti-HA detection and nickel column) VHH: QVQLQESGGGSVQAGGSLRLSCTASGFTFDDSDMGWYRQAPGNECELVSTISSDGSTYYADSVKGRFTISQDNAKNTVYLQMNSLKPEDTAVYYCADVQIPYGLGTCESLDYWGRGTQVTVSS : kon is 631000
